# test-target: UniProt P06276
# Sequence (P06276 whole entry): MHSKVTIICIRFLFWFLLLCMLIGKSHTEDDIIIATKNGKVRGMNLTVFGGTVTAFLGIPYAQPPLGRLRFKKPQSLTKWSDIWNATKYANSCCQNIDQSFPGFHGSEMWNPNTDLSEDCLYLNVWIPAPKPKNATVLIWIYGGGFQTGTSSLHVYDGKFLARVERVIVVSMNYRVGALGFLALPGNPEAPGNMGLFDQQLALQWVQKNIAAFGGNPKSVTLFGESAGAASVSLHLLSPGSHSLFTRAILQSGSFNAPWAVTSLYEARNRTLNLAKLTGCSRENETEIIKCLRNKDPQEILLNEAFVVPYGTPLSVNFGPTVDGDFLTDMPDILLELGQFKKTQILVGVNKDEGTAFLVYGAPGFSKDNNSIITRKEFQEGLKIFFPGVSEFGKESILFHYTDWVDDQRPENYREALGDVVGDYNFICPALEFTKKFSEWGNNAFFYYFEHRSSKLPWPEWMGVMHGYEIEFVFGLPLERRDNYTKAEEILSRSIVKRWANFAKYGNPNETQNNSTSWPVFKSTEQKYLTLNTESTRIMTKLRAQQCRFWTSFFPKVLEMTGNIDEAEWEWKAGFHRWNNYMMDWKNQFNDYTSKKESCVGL
# assay-method-text: Inhibition of human BChE using butyrylthiocholine as substrate at 5 uM by spectrophotometric analysis
We use 4% as the dividing line for inhibition: on or above the line is 1, below is 0.

[
  {
    "cpd-smiles": "CC1(C)CCc2ccc3c(c2C1)C(=O)C(=O)C(F)=C3",
    "test-target": "UniProt P06276",
    "classification": 1
  },
  {
    "cpd-smiles": "CC(C)C1=Cc2ccc3c(c2C(=O)C1=O)CCCC3",
    "test-target": "UniProt P06276",
    "classification": 0
  },
  {
    "cpd-smiles": "O=C1C=C(F)c2ccc3c(c2C1=O)CCCC3",
    "test-target": "UniProt P06276",
    "classification": 1
  }
]

Task item: Is inhibition at least 4%? Consider "O=C1C(=O)c2c(ccc3ccccc23)C=C1F"
Reply: 0

Task item: Is inhibition at least 4%? Consider "CC1=Cc2ccc3c(c2C(=O)C1=O)CC(C)(C)CC3"
Reply: 0
